Target: T1, human 2Ig-B7-H3 extracellular domain (human, UniProt Q5ZPR3 29-466)
T1 chain: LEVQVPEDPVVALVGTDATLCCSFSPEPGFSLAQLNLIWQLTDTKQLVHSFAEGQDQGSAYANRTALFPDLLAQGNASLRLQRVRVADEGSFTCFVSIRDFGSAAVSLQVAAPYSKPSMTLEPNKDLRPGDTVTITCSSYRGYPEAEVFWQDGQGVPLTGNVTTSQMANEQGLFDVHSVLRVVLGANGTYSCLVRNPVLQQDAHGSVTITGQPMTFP
Assay: biolayer interferometry (Octet), antibody captured on the probe, extracellular domain in solution
assay.endpoint: pKd
In textbook form, pKd equals minus log to base ten of the concentration in mol/L.

Input MIL33B-H1-hIgG1 (antibody, V domains shown, also called AHF15945; AHF 15945) VH: QVQLVQSGAEVKKPGASVKVSCKASGYTFTSYVMHWVRQAPGQRLEWMGYINSYSDGTKYNEKFKGRVTITSDTSASTAYMELSSLRSEDTAVYYCARWGGLGNGAMDYWGQGTLVTVSS VL: EIVLTQSPATLSLSPGERATLSCSVSSSVNYMHWYQQKPGQAPRRLIYDTSKLASGIPARFSGSGSGTDYTLTISSLEPEDFAVYYCQQWTSNPLTFGQGTKLEIK . Output pKd: 7.67
